Assay: […] solubility of the compound in ethanol after 24 hrs by HPLC analysis
Type: physicochemical
Items are presented alongside their recorded solubility at 24 h.
QUANTITY: solubility at 24 h (mM)

SMILES_TEXT | QUANTITY | COMPARISON_SYMBOL | QUANTITATIVE_READOUT
N#C/C(=N\Nc1cc(Cl)c(Cl)c(Cl)c1)C(=O)c1cc(C2CCCCC2)on1 | solubility at 24 h | = | 8.5
CC(C)(C)c1cc(C(=O)/C(C#N)=N/Nc2cc(C(F)(F)F)cc(C(F)(F)F)c2)no1 | solubility at 24 h | > | 347
CC(C)(C)c1cc(C(=O)/C(C#N)=N/Nc2cc(Cl)cc(C(F)(F)F)c2)no1 | solubility at 24 h | = | 36.6
CC(C)(C)c1cc(C(=O)/C(C#N)=N/Nc2cc(Cl)c(Cl)c(Cl)c2)no1 | solubility at 24 h | = | 10.9
CC(C)(C)c1cc(C(=O)/C(C#N)=N/Nc2cccc(Cl)c2)no1 | solubility at 24 h | = | 45.3
CC(C)(C)c1cc(C(=O)/C(C#N)=N/Nc2cc(F)c(F)c(F)c2)no1 | solubility at 24 h | = | 81.6
CC(C)(C)c1cc(C(=O)/C(C#N)=N/Nc2ccc(F)c(Cl)c2)no1 | solubility at 24 h | = | 23.5
